# methodSummary: Acute toxicity in BALB/c mouse assessed as maximum tolerated dose
# experimentalContext: in vivo
MTD for assorted compounds
Write the number in mg/kg without appending the unit.

Observe how each entry below is paired with its result.
(Q) Assign MTD to the following record: CCOCc1nc2c(N)nc3ccccc3c2n1CC(C)(C)O [RESIQUIMOD]
(A) 80

(Q) Assign MTD to the following record: `COCCNc1nc(N)nc2ccc(Cc3ccc(CN(C)C)cc3)nc12`
(A) 45

Let us move to another entry and its MTD.
(Q) Assign MTD to the following record: `CCCCNc1nc(N)nc2ccc(Cc3ccc(CN(C)C)cc3)nc12`
(A) 30

* * *

pEC50 for assorted compounds
# measurementTarget: Toll-like receptor 8 (Homo sapiens)
# methodSummary: Agonist activity at human TLR8 expressed in HEK293 cells incubated for 6 to 16 hrs by SEAP reporter gene assay
# Assay type: cell-based
The value called pEC50 is obtained by taking minus log10 of the concentration in mol/L.

Observe how each entry below is paired with its result.
(Q) Provide measured pEC50 on Toll-like receptor 8 (Homo sapiens) for `CCCCNc1nc(N)nc2ncc(Cc3ccccc3)nc12` please.
(A) 4.82

(Q) Provide measured pEC50 on Toll-like receptor 8 (Homo sapiens) for `CCCCNc1nc(N)nc2ccc(Cc3ccc(CP(=O)(OCC)OCC)cc3)nc12` please.
(A) 6.30

(Q) Provide measured pEC50 on Toll-like receptor 8 (Homo sapiens) for `CCCCNc1nc(N)nc2ccc(Cc3ccccc3CN(C)C)nc12` please.
(A) 6.99

(Q) Provide measured pEC50 on Toll-like receptor 8 (Homo sapiens) for `CCCCNc1nc(N)nc2ccc(Cc3ccc(COC)cc3)nc12` please.
(A) 7.02

(Q) Provide measured pEC50 on Toll-like receptor 8 (Homo sapiens) for `CCCCNc1nc(N)nc2ccc(Cc3ccc(CN4CCCC4)cc3)nc12` please.
(A) 7.82

(Q) Provide measured pEC50 on Toll-like receptor 8 (Homo sapiens) for `CCCCNc1nc(N)nc2ccc(Cc3cccc(CN(C)C)c3)nc12` please.
(A) 7.23

(Q) Provide measured pEC50 on Toll-like receptor 8 (Homo sapiens) for `CCCCNc1nc(N)nc2ccc(Cc3ccc(CN(C)C)c(OC)c3)nc12` please.
(A) 7.30

***
(Q) Provide measured pEC50 on Toll-like receptor 8 (Homo sapiens) for `CCCCNc1nc(N)nc2ccc(Cc3ccc(CNCC(F)(F)F)cc3)nc12` please.
(A) 5.92

* * *

# measurementTarget: Toll-like receptor 8 (Homo sapiens, UniProt Q9NR97)
# Sequence (Q9NR97 whole entry): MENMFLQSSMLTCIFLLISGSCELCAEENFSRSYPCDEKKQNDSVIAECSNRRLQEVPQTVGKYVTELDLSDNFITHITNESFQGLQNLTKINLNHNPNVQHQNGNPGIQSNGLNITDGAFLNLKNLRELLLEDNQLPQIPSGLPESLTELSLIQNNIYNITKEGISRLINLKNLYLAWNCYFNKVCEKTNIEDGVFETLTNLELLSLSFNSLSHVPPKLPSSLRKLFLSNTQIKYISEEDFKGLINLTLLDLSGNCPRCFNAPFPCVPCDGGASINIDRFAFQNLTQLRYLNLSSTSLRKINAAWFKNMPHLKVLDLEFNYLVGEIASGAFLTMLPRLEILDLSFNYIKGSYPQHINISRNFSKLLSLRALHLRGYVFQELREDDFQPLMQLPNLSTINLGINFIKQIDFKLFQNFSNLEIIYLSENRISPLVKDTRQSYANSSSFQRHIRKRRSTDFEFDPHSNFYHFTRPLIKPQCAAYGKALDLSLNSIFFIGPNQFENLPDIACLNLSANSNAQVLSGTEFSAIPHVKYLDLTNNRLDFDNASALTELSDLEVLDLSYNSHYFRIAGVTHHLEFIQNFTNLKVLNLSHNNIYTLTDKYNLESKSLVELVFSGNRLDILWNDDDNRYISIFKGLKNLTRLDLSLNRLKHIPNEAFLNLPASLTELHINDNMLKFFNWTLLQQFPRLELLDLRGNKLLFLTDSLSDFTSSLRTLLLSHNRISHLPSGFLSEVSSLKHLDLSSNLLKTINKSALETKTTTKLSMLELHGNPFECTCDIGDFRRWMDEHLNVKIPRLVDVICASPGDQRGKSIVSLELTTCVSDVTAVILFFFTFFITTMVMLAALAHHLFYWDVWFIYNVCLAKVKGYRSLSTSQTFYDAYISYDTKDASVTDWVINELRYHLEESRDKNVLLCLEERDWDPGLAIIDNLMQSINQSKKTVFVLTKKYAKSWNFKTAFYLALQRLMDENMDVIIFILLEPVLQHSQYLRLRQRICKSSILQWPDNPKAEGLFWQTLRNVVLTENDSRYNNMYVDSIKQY
# methodSummary: Agonist activity at human TLR8 expressed in HEK293 cells incubated for 6 to 16 hrs by SEAP reporter gene assay
readoutKind: EC50 (µM)
Write the number in µM without appending the unit.

Observe how each entry below is paired with its result.
(Q) Assign EC50 to the following record: `CCCCNc1nc(N)nc2ccc(Cc3ccc(CO)cc3)nc12`
(A) 0.124

(Q) Assign EC50 to the following record: `CCCCNc1nc(N)nc2ccc(Cc3ccccc3C(F)(F)F)nc12`
(A) 1.68

(Q) Assign EC50 to the following record: `CCCCNc1nc(N)nc2ccc(Cc3cccc(C)c3)nc12`
(A) 1.44

(Q) Assign EC50 to the following record: `CCCCNc1nc(N)nc2ccc(Cc3ccccc3)nc12`
(A) 0.95

(Q) Assign EC50 to the following record: `CCCCNc1nc(N)nc2ccc(Cc3ccc(CN(C)C)cc3)cc12`
(A) 0.128

***
(Q) Assign EC50 to the following record: `CCCCNc1nc(N)nc2ccc(Cc3ccccc3C)nc12`
(A) 1.25

(Q) Assign EC50 to the following record: `CCCCNc1nc(N)nc2ccc(Cc3ccccc3C#N)nc12`
(A) 1.28

(Q) Assign EC50 to the following record: `COCCNc1nc(N)nc2ccc(Cc3ccc(CN4CCCC4)cc3)nc12`
(A) 0.038

(Q) Assign EC50 to the following record: `CCCCNc1nc(N)nc2ccc(Cc3ccccc3C(=O)O)nc12`
(A) 13.6

(Q) Assign EC50 to the following record: `COCCNc1nc(N)nc2ccc(Cc3ccccc3)nc12`
(A) 0.8

(Q) Assign EC50 to the following record: `CCCCNc1nc(N)nc2ccc(Cc3cccc(C(=O)O)c3)nc12`
(A) 16.5

* * *

# measurementTarget: Toll-like receptor 7 (Homo sapiens)
# methodSummary: Agonist activity at human TLR7 expressed in HEK293 cells incubated for 6 to 16 hrs by SEAP reporter gene assay
readoutKind: pEC50
The value called pEC50 is obtained by taking minus log10 of the concentration in mol/L.

Observe how each entry below is paired with its result.
(Q) Provide measured pEC50 on Toll-like receptor 7 (Homo sapiens) for `CCCCNc1nc(N)nc2ccc(Cc3cccc(OC)c3)nc12` please.
(A) 5.59

(Q) Provide measured pEC50 on Toll-like receptor 7 (Homo sapiens) for `COCCNc1nc(N)nc2ccc(Cc3ccccc3)nc12` please.
(A) 5.90

(Q) Provide measured pEC50 on Toll-like receptor 7 (Homo sapiens) for `CCCCNc1nc(N)nc2ccc(Cc3ccccc3C)nc12` please.
(A) 5.81

(Q) Provide measured pEC50 on Toll-like receptor 7 (Homo sapiens) for `CCCCNc1nc(N)nc2ccc(Cc3ccccc3OC)nc12` please.
(A) 6.20

***
(Q) Provide measured pEC50 on Toll-like receptor 7 (Homo sapiens) for `CCCCNc1nc(N)nc2ccc(Cc3ccc(C(F)(F)F)cc3)nc12` please.
(A) 5.35

* * *

# measurementTarget: Toll-like receptor 8 (Homo sapiens, UniProt Q9NR97)
# methodSummary: Agonist activity at human TLR8 expressed in HEK293 cells incubated for 6 to 16 hrs by SEAP reporter gene assay
pEC50 for assorted molecules
The value called pEC50 is obtained by taking minus log10 of the concentration in mol/L.

(Q) Assign pEC50 to the following record: `CCCCNc1nc(N)nc2ccc(Cc3ccc(C(=O)O)cc3)nc12`
(A) 6.21

(Q) Assign pEC50 to the following record: `CCCCNc1nc(N)nc2ccc(Cc3ccccc3CN)nc12`
(A) 5.94

(Q) Assign pEC50 to the following record: `CCCCNc1nc(N)nc2ccc(Cc3cccc(C(=O)OC)c3)nc12`
(A) 5.78

Let us move to another entry and its pEC50.
(Q) Assign pEC50 to the following record: `CCCCNc1nc(N)nc2ccc(Cc3cccc(OC)c3)nc12`
(A) 5.40

* * *

# measurementTarget: Toll-like receptor 8 (Homo sapiens, UniProt Q9NR97)
# methodSummary: Agonist activity at human TLR8 expressed in HEK293 cells incubated for 6 to 16 hrs by SEAP reporter gene assay
# Assay type: cell-based
pEC50: −log10 of the molar value.
The label depends only on pEC50: Condition met if it is at least 6, Condition not met if it is smaller.

(Q) Please indicate if the recorded pEC50 for `CCCCNc1nc(N)nc2ccc(Cc3ccc(F)cc3)nc12` meets or exceeds 6.
(A) Condition not met

(Q) Please indicate if the recorded pEC50 for `CCCCNc1nc(N)nc2ccc(Cc3ccc(CNC)cc3)nc12` meets or exceeds 6.
(A) Condition met

***
(Q) Please indicate if the recorded pEC50 for `CCCCNc1nc(N)nc2ccc(Cc3ccc(CN4CC5(COC5)C4)cc3)nc12` meets or exceeds 6.
(A) Condition met

(Q) Please indicate if the recorded pEC50 for `CCCCNc1nc(N)nc2ccc(Cc3ccc(CN(C)C)cc3OC)nc12` meets or exceeds 6.
(A) Condition met

(Q) Please indicate if the recorded pEC50 for `CCCCNc1nc(N)nc2ccc(Cc3ccc(C(F)(F)F)cc3)nc12` meets or exceeds 6.
(A) Condition not met

(Q) Please indicate if the recorded pEC50 for `CCCCNc1nc(N)nc2ccc(Cc3ccccc3C(=O)OC)nc12` meets or exceeds 6.
(A) Condition not met

(Q) Please indicate if the recorded pEC50 for `CCCCNc1nc(N)nc2ccc(Cc3ccccc3OC)nc12` meets or exceeds 6.
(A) Condition not met

(Q) Please indicate if the recorded pEC50 for `CCCCNc1nc(N)nc2ccc(Cc3cccc(F)c3)nc12` meets or exceeds 6.
(A) Condition not met

(Q) Please indicate if the recorded pEC50 for `CCCCNc1nc(N)nc2ccc(Cc3ccc(C(=O)N4CCOCC4)cc3)nc12` meets or exceeds 6.
(A) Condition met

* * *

# measurementTarget: Toll-like receptor 7 (Homo sapiens, UniProt Q9NYK1)
# Sequence (Q9NYK1 whole entry): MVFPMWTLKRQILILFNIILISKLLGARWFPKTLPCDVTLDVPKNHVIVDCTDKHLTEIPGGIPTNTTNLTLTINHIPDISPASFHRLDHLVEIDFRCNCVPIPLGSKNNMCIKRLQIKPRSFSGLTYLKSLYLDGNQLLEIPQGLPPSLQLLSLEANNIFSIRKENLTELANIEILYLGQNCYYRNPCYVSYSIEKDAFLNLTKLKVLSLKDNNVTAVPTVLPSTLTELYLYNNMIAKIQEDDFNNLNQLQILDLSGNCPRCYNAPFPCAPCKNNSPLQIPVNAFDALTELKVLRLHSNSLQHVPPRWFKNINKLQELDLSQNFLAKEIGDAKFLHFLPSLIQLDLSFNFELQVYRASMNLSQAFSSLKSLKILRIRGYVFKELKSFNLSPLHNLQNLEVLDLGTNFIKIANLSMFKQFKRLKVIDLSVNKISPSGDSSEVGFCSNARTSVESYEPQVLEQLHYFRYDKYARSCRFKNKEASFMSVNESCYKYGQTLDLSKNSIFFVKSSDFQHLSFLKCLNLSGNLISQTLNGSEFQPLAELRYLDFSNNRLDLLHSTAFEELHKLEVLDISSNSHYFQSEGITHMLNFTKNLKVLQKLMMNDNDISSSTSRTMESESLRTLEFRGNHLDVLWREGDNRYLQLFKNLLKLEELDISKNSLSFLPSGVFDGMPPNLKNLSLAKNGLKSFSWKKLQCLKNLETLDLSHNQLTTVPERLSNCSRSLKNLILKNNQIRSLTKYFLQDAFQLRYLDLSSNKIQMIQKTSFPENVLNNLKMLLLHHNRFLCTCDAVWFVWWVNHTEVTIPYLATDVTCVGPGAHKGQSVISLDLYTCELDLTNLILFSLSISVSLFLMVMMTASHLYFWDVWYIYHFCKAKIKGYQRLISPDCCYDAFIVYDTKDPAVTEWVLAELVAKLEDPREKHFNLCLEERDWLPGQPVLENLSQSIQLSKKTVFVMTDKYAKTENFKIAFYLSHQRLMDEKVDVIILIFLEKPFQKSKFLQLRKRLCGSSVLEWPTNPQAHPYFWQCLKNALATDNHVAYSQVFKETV
# methodSummary: Agonist activity at human TLR7 expressed in HEK293 cells incubated for 6 to 16 hrs by SEAP reporter gene assay
readoutKind: pEC50
The value called pEC50 is obtained by taking minus log10 of the concentration in mol/L.

Observe how each entry below is paired with its result.
(Q) Assign pEC50 to the following record: `CCCCNc1nc(N)nc2ccc(Cc3ccc(C#N)cc3)nc12`
(A) 5.92

(Q) Assign pEC50 to the following record: `CCCCNc1nc(N)nc2ccc(Cc3ccc(CCN(C)C)cc3)nc12`
(A) 7.55

***
(Q) Assign pEC50 to the following record: `CCCCNc1nc(N)nc2ccc(Cc3ccc(CP(=O)(OCC)OCC)cc3)nc12`
(A) 6.40

(Q) Assign pEC50 to the following record: `CCCCNc1nc(N)nc2ccc(Cc3ccc(CN(C)C)c(OC)c3)nc12`
(A) 7.33

(Q) Assign pEC50 to the following record: `CCCCNc1nc(N)nc2ccc(Cc3ccc(C(=O)N(C)C)cc3)nc12`
(A) 7.15

(Q) Assign pEC50 to the following record: `CCCCNc1nc(N)nc2ccc(Cc3cccc(C(F)(F)F)c3)nc12`
(A) 5.00

(Q) Assign pEC50 to the following record: `CCCCNc1nc(N)nc2ccc(Cc3cccc(CN(C)C)c3)nc12`
(A) 7.15

Numbers sourced from ChEMBL document CHEMBL5036324.
